Entries and their growth inhibition values follow.
- PROTOCOL SUMMARY: antimalarial activity against Dd2 strain (AID 2302);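 further: 0% = DMSO untreated growth and 100% = chloroquine plus artemisinin killed control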
- ASSAY CONTEXT: P. falciparum Dd2 in RBCs, LDH growth readout, 72 h; at 2 µM; hits give high values
Reply with just the number (in %).

growth inhibition in this record for CC(Oc1ccc(Cl)cc1)C(=O)NCCC1CCN(CCCCCNC(=O)/C=C/c2ccc(Cl)c(Cl)c2)CC1 (stereo unspecified) : 20

// recorded growth inhibition for `Cc1cc(N2CCCCC2)nc2ccc(NC(=O)c3cc(=O)c4ccccc4o3)cc12` : 19

Entry `N[C@@H](COc1cccc2c(-c3ccncc3)c(-c3cccc(NC(=O)Nc4ccccc4)c3)nn12)c1ccccc1` , growth inhibition reported as 71

The compound identified as `COC(=O)c1ccc(NC(=O)c2ccc(CCN3CCC(c4nc(COCC(F)(F)F)c(-c5ccc(F)cc5)o4)CC3)cc2)cc1` registered its growth inhibition at 37
